biological target: steroid sulphatase (Homo sapiens); construct: Sulphatase-positive human placenta from normal term pregnancies are thoroughly minced with scissors; from tissue; host or cells: human term placenta (2000 g supernatant / microsomes); experiment: Inhibition of steroid sulphatase activity in placental microsomes (Protocol 2); format: biochemical; details: 1 μM; superscript 1 or 2 = run with the reference values of that footnote; -ve % means stimulation
Sequence (P08842 22-583): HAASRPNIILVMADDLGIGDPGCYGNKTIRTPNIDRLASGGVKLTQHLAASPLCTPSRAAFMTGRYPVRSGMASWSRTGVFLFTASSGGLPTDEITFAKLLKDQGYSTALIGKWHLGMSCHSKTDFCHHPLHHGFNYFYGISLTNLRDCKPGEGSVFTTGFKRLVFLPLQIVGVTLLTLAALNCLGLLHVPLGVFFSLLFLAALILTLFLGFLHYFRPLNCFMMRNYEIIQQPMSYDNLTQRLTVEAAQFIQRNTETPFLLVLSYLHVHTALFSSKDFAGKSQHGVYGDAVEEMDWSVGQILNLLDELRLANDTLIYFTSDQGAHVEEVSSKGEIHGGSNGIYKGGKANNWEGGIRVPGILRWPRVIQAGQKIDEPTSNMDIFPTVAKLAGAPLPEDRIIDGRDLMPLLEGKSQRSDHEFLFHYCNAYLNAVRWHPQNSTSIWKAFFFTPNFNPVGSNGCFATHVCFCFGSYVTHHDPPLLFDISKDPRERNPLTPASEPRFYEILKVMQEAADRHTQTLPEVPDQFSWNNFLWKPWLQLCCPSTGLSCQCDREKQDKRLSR
Reported Metric: Placental Microsomes % inhibition

Example entries and their recorded answers appear below.
Compound	Reported Metric	Result
CN(C)S(=O)(=O)O[C@H]1CCC2C3CCc4cc(O)ccc4C3CC[C@@]21C (stereo partly shown)	Placental Microsomes % inhibition	8.7^1%
C[C@]12CCC3c4ccc(OS(N)(=O)=O)cc4CCC3C1CC[C@@H]2OS(=O)(=O)N(Cc1ccccc1)Cc1ccccc1 (stereo partly shown)	Placental Microsomes % inhibition	38.2^1%
CC(=O)NS(=O)(=O)O[C@H]1CCC2C3CCc4cc(OS(N)(=O)=O)ccc4C3CC[C@@]21C (stereo partly shown)	Placental Microsomes % inhibition	91.0^1%

Qu. Assign Placental Microsomes % inhibition to the following record: CN(C)S(=O)(=O)OC1CCC2C3CCc4cc(OS(N)(=O)=O)ccc4C3CCC12C (stereo not shown)
Ans. 96.3^1%

###

Recorded Plate assay % inhibition for the following compounds
target: STS (Homo sapiens, UniProt P08842); assay: Plate assay, % inhibition; details: 0.1 μM; -ve % means stimulation
Sequence (P08842 22-583, species assumed): as the sequence (P08842 22-583) above
Returns: string containing the number followed by the unit.

Example entries and their recorded answers appear below.
Compound	Tested On	Result
CC(=O)NS(=O)(=O)O[C@H]1CCC2C3CCc4cc(O)ccc4C3CC[C@@]21C (stereo partly drawn)	STS (Homo sapiens, UniProt P08842)	4%
CN(C)S(=O)(=O)OC1CCC2C3CCc4cc(OS(N)(=O)=O)ccc4C3CCC12C (stereo not drawn)	STS (Homo sapiens, UniProt P08842)	3%
CC(=O)NS(=O)(=O)O[C@H]1CCC2C3CCc4cc(OS(N)(=O)=O)ccc4C3CC[C@@]21C (stereo partly drawn)	STS (Homo sapiens, UniProt P08842)	7%
C[C@]12CCC3c4ccc(OS(N)(=O)=O)cc4CCC3C1CC[C@@H]2OS(=O)(=O)N(Cc1ccccc1)Cc1ccccc1 (stereo partly drawn)	STS (Homo sapiens, UniProt P08842)	0%

Qu. Provide Plate assay % inhibition, recorded with STS (Homo sapiens, UniProt P08842), of CN(C)S(=O)(=O)O[C@H]1CCC2C3CCc4cc(O)ccc4C3CC[C@@]21C (stereo partly drawn)
Ans. −5%

Qu. Provide Plate assay % inhibition, recorded with STS (Homo sapiens, UniProt P08842), of COc1cc2c(cc1OS(N)(=O)=O)CC[C@@H]1[C@@H]2CC[C@]2(C)C(=O)CC[C@@H]12 [Compound 2-MOEMATE, 2-methoxyoestrone-3-O-sulphamate, reference compound]
Ans. 15%

###

molecular target: steroid sulphatase (Homo sapiens); construct: Sulphatase-positive human placenta from normal term pregnancies are thoroughly minced with scissors; from tissue; host or cells: human term placenta (2000 g supernatant / microsomes); assay: Inhibition of steroid sulphatase activity in placental microsomes (Protocol 2); format: biochemical; conditions: read-out: Placental Microsomes, IC50
Reported Metric: IC50

Qu. Assign IC50 to the following record: CSc1cc2c(cc1OS(N)(=O)=O)CCC1C2CCC2(C)C1CCC2(O)Cc1ccc(C(C)(C)C)cc1 (stereo not shown)
Ans. 80 nM
